# Tested on: HepG2 cells
# assay-notes: HepG2 cytotoxicity assay
# run-conditions: HepG2 cytotoxicity unified across screens; >25 set to 25.00
Classification field: enter Y for Unified cytotox values not below 5 µM, N for values below it.

Consider the following illustrative entries.
- compound: "COc1cc(NC(=O)c2sc(-c3ccc(Cl)cc3)cc2NC(=O)c2cccnc2)ccc1OCCN1CCCC1"
  class-label: "Y"
- compound: "CN1CCN(CCCN(Cc2ccc(-c3cccc(CNC4CCCC4)c3)cc2)C(=O)Nc2ccccc2)CC1.O=C(O)C(F)(F)F"
  class-label: "Y"
- compound: "CCCCCCNC(=N)c1ccc(OCCCCCOc2ccc(C(=N)NCCCCCC)cc2)cc1.Cl"
  class-label: "Y"
- compound: "C=C(C)Cn1cc(C2CCN(CCN3CCC(CNC(=O)c4ccc(-c5ccc(C#N)cc5)cc4)CC3)CC2)c2ccccc21"
  class-label: "N"

Now consider a different compound.
Problem: Is the recorded value of Unified cytotox equal to or greater than 5 µM for this compound? Br.C=CCNC(CCCCC)c1ccc(OCCOc2ccc(C(CCCCC)NCC=C)cc2)cc1 (centres unmarked)
Solution: Y

* * *

# System: HepG2 cells
# assay-notes: HepG2 cytotoxicity assay
# run-conditions: unified HepG2 value across the three screens
// reported Unified cytotox per item
Give the value in µM but do not write µM after it.

Problem: Tell me its Unified cytotox given CN(C)CCN(C)C(=O)c1cc(-c2ccncc2)c(-c2ccc(Cl)c(O)c2)o1.Cl [TCMDC-141393] as the entry.
Solution: 53.70

Problem: Tell me its Unified cytotox given COc1ccc2nc(-c3cc(-c4ccc(NC(C)=O)cc4)cnc3N)[nH]c2c1 [TCMDC-135365] as the entry.
Solution: 12.02

Problem: Tell me its Unified cytotox given Cc1[nH]c2ccc(-c3ccc(N(C)C)cc3)cc2c(=O)c1Cl [TCMDC-136188] as the entry.
Solution: 100.00

Problem: Tell me its Unified cytotox given Cc1cc(C)cc(-n2c(C)cc(/C=C3\SC(=Nc4ccc(Cl)cc4)NC3=O)c2C)c1 [TCMDC-124103] as the entry.
Solution: 100.00

Problem: Tell me its Unified cytotox given Cc1cc(NC(c2ccc(Cl)cc2)c2ccc3cccnc3c2O)no1 (stereo not shown) [TCMDC-123828] as the entry.
Solution: 1.38

* * *

# System: HepG2 cells
# assay-notes: HepG2 cytotoxicity assay
# run-conditions: read-out: HepG2 cytotoxicity assay IC50; dose response confirmation
// reported IC50 per item
Give the value in µM but do not write µM after it.

Problem: Tell me its IC50 given NC(=O)c1ccccc1Nc1nc(Nc2cc[nH]n2)ncc1Cl [TCMDC-134169] as the entry.
Solution: 13.2

Problem: Tell me its IC50 given COc1ccc2ncc(F)c(CCN3CCC(NCc4cc(Br)c5c(c4)OCCO5)CC3)c2n1.Cl [TCMDC-136211] as the entry.
Solution: 14.5

Problem: Tell me its IC50 given C/C=C/COc1ccc(-c2c(C)[nH]c(C)c(Cl)c2=O)cc1 [TCMDC-134729] as the entry.
Solution: 100

Problem: Tell me its IC50 given COc1ccc(Oc2ccc(-c3c(C)[nH]c(C)c(Cl)c3=O)cc2)cc1 [TCMDC-136134] as the entry.
Solution: 100

Problem: Tell me its IC50 given Cc1ccc2nc(/N=C(\N)NC(=O)NC3CCCCC3)nc(C)c2c1 [TCMDC-124557] as the entry.
Solution: 57.5
